test: RPL19A-GFP modulators, yeast TOR pathway, confirmation, cell-based, S. cerevisiae, flow cytometry, cherry picks, mother/daughter gates (AID 2270)
condition-context: S. cerevisiae RPL19A-GFP strain, 3 h, at 10 µM, active compounds read low, 100 = same GFP as DMSO wells

structure-string: CCOc1ccc(N2C(=O)C(Cl)=C(Nc3ccccc3O)C2=O)cc1
GFP response vs DMSO [%]: 97.4
//
structure-string: O=C(O)c1ccccc1C(=O)Nc1ccccc1
GFP response vs DMSO [%]: 101
//
structure-string: Oc1ccc(Cl)cc1-c1cc(-c2ccco2)[nH]n1
GFP response vs DMSO [%]: 103
//
structure-string: COC(=O)c1ccc(/C=N\NC(=O)c2ccc(C)cc2Cl)cc1
GFP response vs DMSO [%]: 98.6
//
structure-string: COc1ccc(C(=O)Nc2cccc(C)c2)cc1
GFP response vs DMSO [%]: 98.2
//
structure-string: Cc1c(NC2=C(Cl)C(=O)N(c3ccccc3)C2=O)c(=O)n(-c2ccccc2)n1C
GFP response vs DMSO [%]: 93.5
//
structure-string: Cc1nn(Cc2ccc(Cl)cc2)c(=O)n1N(C)c1ncc(C(F)(F)F)cc1Cl
GFP response vs DMSO [%]: 96
//
structure-string: Cc1c(NC(=O)/C(C#N)=C/c2c(N3CCCCC3)nc3ccccn3c2=O)c(=O)n(-c2ccccc2)n1C
GFP response vs DMSO [%]: 95
//
structure-string: COc1ccc(-c2cc(C(F)(F)F)nc(N3CCOCC3)n2)cc1OC
GFP response vs DMSO [%]: 100
//
structure-string: Cc1nnc(OCc2nc3ccccc3n2C)c2ccccc12
GFP response vs DMSO [%]: 101
//
structure-string: O=S(=O)(c1ccc(Oc2ccccc2)cc1)N1CCOCC1
GFP response vs DMSO [%]: 98.2
